# reported % fluorescent cells increase; entries follow
test: compound fluorescence in GFP channel, mTEFS cells – imaging, mTEFS fibroblasts, cherry-pick, artefact control for X-chromosome reactivation project, dose response (AID 743396); details: mTEFS fibroblasts autofluorescence, GFP-channel imaging, 3 days; at 19.5 µM (top of the series); cells pretreated with 5-aza-dC;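 further: raw share of Hoechst-counted cells scored GFP positive without control normalization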
# unit: % | format: bare number

COc1cccc(CNC(=O)C(Cc2ccccc2)n2cccc2)c1 (stereo not drawn): 0
CN(C)/C=C1\C=C2C(=O)c3ccccc3N2C1=O: 0.092

Proceed to the following item.
% fluorescent cells increase in this record for C=CC[C@@H](CC(=O)N(CCO)Cc1ccccc1)C(=O)NCCOC(=O)[C@@H](CC=C)Cc1ccc(F)cc1 : 0.009
